Below is a list of entries, each paired with its recorded half-life value.
method: Elimination half life in ICR mouse at 50 mg/kg, po by HPLC analysis
Type: ADME, organism-based
protocol_conditions: in vivo, read-out: beta t1/2 (converted)
Response body: numeric value in h, unit text excluded.

These recorded examples may help you get a feel for the data.
smi: CCOC(=O)CN1CCC2(CCN(c3nc(=O)c4cc(C(F)(F)F)cc([N+](=O)[O-])c4s3)CC2)C1
reading_unit: h
recorded_result: 3.46

smi: O=c1nc(N2CCC3(CCN(Cc4ccc(C(F)(F)F)cc4)CC3)CC2)sc2c([N+](=O)[O-])cc(C(F)(F)F)cc12
reading_unit: h
recorded_result: 3.59

smi: O=c1nc(N2CCC3(CCN(Cc4ccc(F)cc4)C3)CC2)sc2c([N+](=O)[O-])cc(C(F)(F)F)cc12
reading_unit: h
recorded_result: 3.11

Prompt: What does the record list as half-life for "O=c1nc(N2CCC3(CCN(Cc4ccc(Br)cc4)CC3)CC2)sc2c([N+](=O)[O-])cc(C(F)(F)F)cc12" ?
Completion: 10.7

Prompt: What does the record list as half-life for "O=c1nc(N2CCN(CC3CCCCC3)CC2)sc2c([N+](=O)[O-])cc(C(F)(F)F)cc12" ?
Completion: 2.87

Prompt: What does the record list as half-life for "O=c1nc(N2CCC3(CCN(Cc4cccc(F)c4)CC3)CC2)sc2c([N+](=O)[O-])cc(C(F)(F)F)cc12" ?
Completion: 3.53

Prompt: What does the record list as half-life for "O=c1nc(N2CCC3(CCN(Cc4cc(F)cc(F)c4)CC3)CC2)sc2c([N+](=O)[O-])cc(C(F)(F)F)cc12" ?
Completion: 4.68
